target: APOBEC3G (A3G) (human, UniProt Q9HC16 1-384); assay: fluorescence anisotropy; 10 mM MgCl2; 40 mM Tris pH 7.2, 50 mM NaCl, 10 mM MgCl2, 1 mM DTT, 0.1% Triton X-100, 2% glycerol, 37 C 20 min; FA with 2 nM labeled NA; UV cross-linking in 1X PBS, 37 C 20
Sequence (Q9HC16 whole entry): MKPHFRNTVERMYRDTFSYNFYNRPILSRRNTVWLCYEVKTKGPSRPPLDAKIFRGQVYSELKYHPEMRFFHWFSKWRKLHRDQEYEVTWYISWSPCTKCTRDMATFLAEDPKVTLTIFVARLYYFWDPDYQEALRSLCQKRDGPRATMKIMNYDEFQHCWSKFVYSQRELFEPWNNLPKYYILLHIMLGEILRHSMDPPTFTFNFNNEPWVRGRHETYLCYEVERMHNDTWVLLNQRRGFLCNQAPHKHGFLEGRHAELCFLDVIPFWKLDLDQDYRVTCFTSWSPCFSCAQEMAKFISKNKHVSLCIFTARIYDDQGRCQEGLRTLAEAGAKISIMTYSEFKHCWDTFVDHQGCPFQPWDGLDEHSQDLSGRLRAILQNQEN
So I've got a bunch of binders here, and I need their pKd values.
Answers are plain numbers, as −log10 of the molar value.

# example entries with known answers
Form: binder = UUAUUUUUAAGGAUU (ssRNA) [15 nt Sub RNA, Alexa 647] ; pKd = 8.36

Form: binder = TTATTUUUAAGGATTTATTTATTTA (ssDNA, dU at positions 6-8) [25 nt Sub ssDNA, Alexa 647] ; pKd = 8.42

Form: binder = UUAUUUUUAAGGAUUUAUUUAUUUA (ssRNA) [25 nt Sub RNA, Alexa 647] ; pKd = 8.54

Alright, here's another binder for you.
Form: binder = TTATTUUUAAGGATT (ssDNA, dU at positions 6-8) [15 nt Sub ssDNA, Alexa 647] ; pKd = 8.00
